molecular target: T1, cynomolgus monkey serum albumin (cynomolgus monkey, UniProt A2V9Z4 25-608); assay: SPR (Biacore 3000), cyno albumin on chip, Fc-ABDEG fusion, pH 5.5
T1 construct: also called cyno albumin; CSA
QUANTITY KIND: R0 pH 5.5
Answer format reminder: number followed by unit.

Batch of 2 binders: report R0 pH 5.5 for each.
1. 11C03 CDR2-V4 fused at the C-terminus of Fc-ABDEG (Fc fusion, not shown: a dimerising Fc or GST; small tags and cut ends) QLQVVESGGGLVQAGGSLRLSCAASERTFVAYPMGWFRQAPEKEREFVAGISAFAGATTDYADSVEGRFTISRDNAKNTAYLQMNNLKPEDTAVYYCAISHQLPGGRPGRDMDSYSYWGHGTQVTVSS
2. 11C03 CDR2-V2 fused at the C-terminus of Fc-ABDEG (Fc fusion, not shown: a dimerising Fc or GST; small tags and cut ends) QLQVVESGGGLVQAGGSLRLSCAASERTFVAYPMGWFRQAPEKEREFVAGASWFAGATTDYADSVEGRFTISRDNAKNTAYLQMNNLKPEDTAVYYCAISHQLPGGRPGRDMDSYSYWGHGTQVTVSS

Result:
["0 RU", "5.22 RU"]

src = patent US20250223342A1
